- test_target: Adrenergic receptor alpha-1 (Rattus norvegicus, UniProt P15823+P23944+P43140)
- Sequence (P15823 whole entry): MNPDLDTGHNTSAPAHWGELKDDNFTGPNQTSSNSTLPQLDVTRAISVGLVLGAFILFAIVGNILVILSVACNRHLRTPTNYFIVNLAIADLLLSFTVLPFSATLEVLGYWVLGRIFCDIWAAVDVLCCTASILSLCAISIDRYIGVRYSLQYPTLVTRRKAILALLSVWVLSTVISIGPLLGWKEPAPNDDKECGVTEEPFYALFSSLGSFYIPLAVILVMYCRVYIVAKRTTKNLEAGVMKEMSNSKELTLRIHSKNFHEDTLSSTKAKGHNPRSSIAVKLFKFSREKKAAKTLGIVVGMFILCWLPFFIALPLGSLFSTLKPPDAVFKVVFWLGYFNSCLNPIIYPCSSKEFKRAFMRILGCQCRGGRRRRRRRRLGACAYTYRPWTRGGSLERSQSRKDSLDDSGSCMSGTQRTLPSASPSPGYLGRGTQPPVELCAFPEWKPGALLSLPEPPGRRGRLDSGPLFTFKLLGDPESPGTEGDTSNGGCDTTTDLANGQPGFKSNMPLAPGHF
- Sequence (P23944 whole entry): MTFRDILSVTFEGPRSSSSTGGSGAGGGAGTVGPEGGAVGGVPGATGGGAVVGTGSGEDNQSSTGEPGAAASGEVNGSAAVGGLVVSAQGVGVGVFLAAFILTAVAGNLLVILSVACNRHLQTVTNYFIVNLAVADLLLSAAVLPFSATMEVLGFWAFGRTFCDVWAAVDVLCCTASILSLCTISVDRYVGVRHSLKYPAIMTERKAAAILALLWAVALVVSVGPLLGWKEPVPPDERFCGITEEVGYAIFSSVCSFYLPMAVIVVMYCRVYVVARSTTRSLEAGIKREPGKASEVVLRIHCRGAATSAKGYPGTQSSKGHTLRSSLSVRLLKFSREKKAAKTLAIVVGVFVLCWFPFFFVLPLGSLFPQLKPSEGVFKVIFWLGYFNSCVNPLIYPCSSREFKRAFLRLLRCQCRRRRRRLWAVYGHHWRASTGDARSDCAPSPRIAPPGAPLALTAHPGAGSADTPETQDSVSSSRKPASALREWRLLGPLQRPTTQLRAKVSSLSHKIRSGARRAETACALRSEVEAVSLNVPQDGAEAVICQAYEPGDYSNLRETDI
- Sequence (P43140 whole entry): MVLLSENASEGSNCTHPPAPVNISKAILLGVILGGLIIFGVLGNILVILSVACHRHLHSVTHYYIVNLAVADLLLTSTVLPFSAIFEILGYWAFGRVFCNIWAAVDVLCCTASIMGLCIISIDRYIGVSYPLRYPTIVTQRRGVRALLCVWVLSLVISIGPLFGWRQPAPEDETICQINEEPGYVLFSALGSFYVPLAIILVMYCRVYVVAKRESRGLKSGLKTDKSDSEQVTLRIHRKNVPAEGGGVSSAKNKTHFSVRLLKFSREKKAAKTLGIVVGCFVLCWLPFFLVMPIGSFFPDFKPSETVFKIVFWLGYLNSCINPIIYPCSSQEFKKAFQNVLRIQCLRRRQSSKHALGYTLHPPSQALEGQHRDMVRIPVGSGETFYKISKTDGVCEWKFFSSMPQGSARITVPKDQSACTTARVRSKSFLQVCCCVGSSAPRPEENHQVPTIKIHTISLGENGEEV
- measurement_protocol: Binding affinity against alpha-1 adrenergic receptor
- Type: protein assay
Entries and their IC50
measured_quantity: IC50 (µM)

>>> observed_result("C[C@@H]([C@@H](O)c1ccc(O)cc1)N1CCC(Cc2ccccc2)CC1 (stereo in doubt; 18) [(S)-IFENPRODIL]")
2.306
>>> observed_result("C[C@@H]([C@@H](O)c1ccccc1)N1CCC(Cc2ccccc2)CC1")
3.4
>>> observed_result("C[C@@H]([C@@H](O)c1ccc(O)cc1)N1CCC(Cc2ccccc2)CC1 (stereo in doubt; 19) [(S)-IFENPRODIL]")
0.629
